System: Plasmodium falciparum
Test: GSK_TCMDC: Inhibition of Plasmodium falciparum Dd2 in whole red blood cells, using parasite LDH activity as an index of growth. Test compounds present at 2uM
Assay type: functional
Recorded Inhibition values for a group of molecules are listed next.
MEASUREMENT_TYPE: Inhibition

* CC1CC(C)CN(CC(O)CNC(=O)Nc2ccc(Br)cc2)C1.O=C(O)C(F)(F)F (centres undefined) | 44%
* CCOc1ccc2c(=NN=Cc3cc(OC)c(OC)cc3OC)cc(C)[nH]c2c1 | 97%
* Cc1cc(C)cc(OCC(O)CN(Cc2cc(Cl)cc(Cl)c2)C(=O)Nc2ccc(Cl)cc2)c1 (centres undefined) | 43%
* O=S(=O)(Nc1cccc(CCN2CCC(N3CCCCC3)CC2)c1)c1ccc(-c2ccccc2)cc1 | 49%
* O=c1cc(NCCCNCc2ccccc2-c2ccccc2)[nH]c2ccccc12 | 46%
* Cc1cc(NC(=O)c2cccs2)ccc1OC1CCN(Cc2ccc(C#N)cc2)C1.O=C(O)C(F)(F)F (centres undefined) | 61%
* CCCCc1cc(NCc2ccncc2)nc(Nc2ccc(C)cc2)n1 | 59%
* O=C(/C=C/c1ccc(Cl)c(Cl)c1)NC1CCC(CN2CCC(c3nc4ccccc4s3)CC2)CC1 (centres undefined) | 32%
* Cc1cccc2nc(-c3ccc(-c4cccc(CN5CCN(c6ccc(C#N)cn6)CC5)c4)s3)[nH]c12.O=C(O)C(F)(F)F | 8%
* CC(C)c1ccc(NC(=O)NCC2CCCN(CCCCCNC(=O)/C=C/c3ccc(Cl)c(Cl)c3)C2)cc1 (centres undefined) | 6%
* Cc1c(CNCCCNc2nc3ccccc3[nH]2)sc(C(F)F)c1Br.Cl | 5%
* COc1cc(OC)c(OC)cc1CN1CCC2(CC1)CN(Cc1ccc(Cl)c(Cl)c1)C(=O)O2 | 94%
* CCN(CCCN1CCCCC1)c1cc(C)nc(Nc2ccc(C)cc2C)n1.O=C(O)C(F)(F)F | 35%
* CO/C(=C\C=C\c1cc2cc(Cl)c(Cl)cc2[nH]1)C(=O)NCCCN1CCN(C2CCCCC2)CC1 | 97%
* Br.CC(C)(C)c1ccc(OCCCON2C(=N)N=C(N)NC2(C)C)c(C(C)(C)C)c1 | 97%
* O=C(Nc1ccc(Br)cc1)N(CCN1CCOCC1)CC(O)COc1ccc(Cl)c(F)c1.O=C(O)C(F)(F)F (centres undefined) | 30%
* Cc1c[nH]c(CCNC(=O)c2cc(-c3ccc(Cl)cc3)cs2)n1 | 7%
* N#Cc1ccc(C(=O)Nc2ccc(-c3cccc(CN4CCCC4)c3)cc2)cc1.O=C(O)C(F)(F)F | 1%
* COc1ccc(CN(C)CCCOc2ccc(NC(=O)c3cccc4c(=O)c5cccc(C)c5[nH]c34)cc2)cc1OC | 62%

Reference source for all entries: ChEMBL document CHEMBL1157539
